- TEST SYSTEM: Inosine-5'-monophosphate dehydrogenase (Cryptosporidium parvum)
- PROTOCOL NOTES: Inhibition of recombinant Cryptosporidium parvum IMPDH expressed in Escherichia coli assessed as NADH production preincubated for 5 mins by fluorescence assay
The entries below come with measured IC50 values attached.
ATTRIBUTE MEASURED: IC50 (µM)

Cc1nc2ccccc2n1CC(=O)Nc1ccc(Cl)cc1 ... 5
O=C(Cn1c(-c2cscn2)nc2ccccc21)Nc1ccc(OC(F)(F)F)cc1 ... 0.14
O=C(Cn1c(-c2cscn2)nc2ccccc21)Nc1cccc(Cl)c1 ... 0.49
CC(C(=O)Nc1ccc(Cl)c(Cl)c1)n1c(-c2cscn2)nc2ccccc21 (configuration not stated) ... 0.24
O=C(Cn1c(-c2cscn2)nc2ccccc21)Nc1ccc(Cl)c(Cl)c1 ... 0.03
O=C(Cn1c(-c2cscn2)nc2ccccc21)Nc1ccccc1Cl ... 5
O=C(Cn1c(-c2nccs2)nc2ccccc21)Nc1ccc(Cl)c(Cl)c1 ... 0.018
O=C(Cn1c(-c2cccs2)nc2ccccc21)Nc1ccc(Cl)cc1 ... 0.02
CC(C(=O)Nc1ccc(Cl)cc1)n1c(-c2cscn2)nc2ccccc21 (configuration not stated) ... 0.06
O=C(Cn1c(-c2nccs2)nc2ccccc21)Nc1ccc2ccccc2c1 ... 0.008
O=C(Cn1c(-c2cncs2)nc2ccccc21)Nc1ccc(Cl)cc1 ... 0.035
O=C(Cn1c(-c2ccccc2)nc2ccccc21)Nc1ccc(Cl)cc1 ... 0.21
O=C(Cn1c(-c2ccc(Cl)cc2)nc2ccccc21)Nc1ccc(Cl)cc1 ... 0.45
CS(=O)(=O)c1ccc(NC(=O)Cn2c(-c3cscn3)nc3ccccc32)cc1 ... 5
O=C(Cn1c(-c2nccs2)nc2ccccc21)Nc1ccc(Cl)cc1 ... 0.03
CC(C)C(C(=O)Nc1ccc(Cl)cc1)n1c(-c2cscn2)nc2ccccc21 (configuration not stated) ... 5
O=C(Cn1c(-c2ccc[nH]2)nc2ccccc21)Nc1ccc(Cl)cc1 ... 0.08
CC(C(=O)Nc1ccc(Cl)cc1)n1c(-c2nccs2)nc2ccccc21 (configuration not stated) ... 0.023
O=C(Cn1c(-c2cscn2)nc2ccccc21)Nc1ccc(Cl)cc1 ... 0.12
O=C(Cn1c(-c2cscn2)nc2ccccc21)Nc1ccc(Br)cc1 ... 0.06
N#Cc1cc(NC(=O)Cn2c(-c3cscn3)nc3ccccc32)ccc1Cl ... 0.03
O=C(Cn1c(-c2cscn2)nc2ccccc21)Nc1ccc2ccccc2c1 ... 0.007

---

- TEST SYSTEM: Inosine-5'-monophosphate dehydrogenase 1 (Homo sapiens, UniProt P20839)
- Sequence (P20839 whole entry): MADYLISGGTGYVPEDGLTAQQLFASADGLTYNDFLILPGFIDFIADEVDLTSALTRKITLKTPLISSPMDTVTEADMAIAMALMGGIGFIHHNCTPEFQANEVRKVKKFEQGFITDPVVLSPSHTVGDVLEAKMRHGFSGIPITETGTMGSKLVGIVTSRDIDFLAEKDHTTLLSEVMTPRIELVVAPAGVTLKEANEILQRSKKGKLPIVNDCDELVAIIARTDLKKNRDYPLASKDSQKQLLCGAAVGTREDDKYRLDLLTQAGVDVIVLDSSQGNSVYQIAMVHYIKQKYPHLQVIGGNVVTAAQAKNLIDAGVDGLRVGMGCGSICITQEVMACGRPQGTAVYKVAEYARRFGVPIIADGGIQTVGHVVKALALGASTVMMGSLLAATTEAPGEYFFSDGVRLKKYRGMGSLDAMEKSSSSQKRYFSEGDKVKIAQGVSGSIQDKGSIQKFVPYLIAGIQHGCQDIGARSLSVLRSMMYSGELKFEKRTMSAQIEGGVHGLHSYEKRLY
ATTRIBUTE MEASURED: IC50

COc1ccc(NC(=O)Cn2c(-c3cscn3)nc3ccccc32)cc1 ... > 50 µM

---

- TEST SYSTEM: Inosine-5'-monophosphate dehydrogenase (Cryptosporidium parvum, UniProt Q8T6T2)
- Sequence (Q8T6T2 whole entry): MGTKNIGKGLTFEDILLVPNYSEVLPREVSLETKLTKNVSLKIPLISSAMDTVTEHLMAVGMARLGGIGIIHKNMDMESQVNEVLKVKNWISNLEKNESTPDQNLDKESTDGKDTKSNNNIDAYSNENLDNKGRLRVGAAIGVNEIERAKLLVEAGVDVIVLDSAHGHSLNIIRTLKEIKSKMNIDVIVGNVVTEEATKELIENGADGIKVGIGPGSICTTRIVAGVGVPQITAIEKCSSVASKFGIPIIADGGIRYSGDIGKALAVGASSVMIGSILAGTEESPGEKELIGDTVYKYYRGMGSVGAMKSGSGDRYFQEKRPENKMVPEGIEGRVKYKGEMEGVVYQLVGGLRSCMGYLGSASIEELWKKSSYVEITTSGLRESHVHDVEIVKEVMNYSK
- PROTOCOL NOTES: Inhibition of recombinant Cryptosporidium parvum IMPDH expressed in Escherichia coli assessed as NADH production preincubated for 5 mins by fluorescence assay in presence of bovine serum albumin
The entries below come with measured log10 of IC50 values attached.
ATTRIBUTE MEASURED: log10 of IC50 (log10 of the value in nM)

O=C(Cn1c(-c2nccs2)nc2ccccc21)Nc1ccc(Cl)cc1 ... 1.70
O=C(Cn1c(-c2cscn2)nc2ccccc21)Nc1ccc(Cl)cc1 ... 2.30
O=C(Cn1c(-c2ccccn2)nc2ccccc21)Nc1ccc2ccccc2c1 ... 1.15
O=C(Cn1c(-c2cscn2)nc2ccccc21)Nc1cccc(Cl)c1 ... 3.16
O=C(Cn1c(-c2ccc(F)cc2)nc2ccccc21)Nc1ccc(Cl)cc1 ... 3.11
CC(C(=O)Nc1ccc(Cl)cc1)n1c(-c2nccs2)nc2ccccc21 (stereo unspecified) ... 1.48
